The following binders are shown together with reported koff values.
# Test Target: human IL-17A (recombinant) (human, UniProt Q16552 24-155)
# Sequence (Q16552 24-155): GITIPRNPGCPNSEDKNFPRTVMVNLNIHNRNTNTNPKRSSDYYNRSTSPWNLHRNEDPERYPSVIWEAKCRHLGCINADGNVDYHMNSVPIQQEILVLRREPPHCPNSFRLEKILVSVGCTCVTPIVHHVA
# Assay Method Text: SPR
Report as a plain number; the unit s⁻¹ is understood.

BDG11.004 (human IgG1) (antibody, V domains shown) VH: EVQLVQSGAEVKKPGESLKISCKGSGYSFTSYWIGWVRQMPGKGLEWMGIIYPSDSDTRYSPSFQGQVTISADKSISTAYLQWSSLKASDTAMYYCARYPNYGAFDIWGQGTMVTVSS VL: EIVLTQSPATLSLSPGERATLSCRASQSVSSYLAWYQQKPGQAPRLLIYDASNRATGIPARFSGSGSGTDFTLTISSLEPEDFAVYYCQQYFYWGWPFGQGTKLEIK: 0.00221
BDG11.007 (human IgG1) (antibody, V domains shown) VH: EVQLVQSGAEVKKPGESLKISCKGSGYSFTSYWIGWVRQMPGKGLEWMGIIYPSDSDTRYSPSFQGQVTISADKSISTAYLQWSSLKASDTAMYYCARYPNYGAFDIWGQGTMVTVSS VL: EIVLTQSPATLSLSPGERATLSCRASQSVWSYLAWYQQKPGQAPRLLIYDASNRATGIPARFSGSGSGTDFTLTISSLEPEDFAVYYCQQYFNWGWPFGQGTKLEIK: 0.0045
BDG11.006 (human IgG1) (antibody, V domains shown) VH: EVQLVQSGAEVKKPGESLKISCKGSGYSFTSYWIGWVRQMPGKGLEWMGIIYPSDSDTRYSPSFQGQVTISADKSISTAYLQWSSLKASDTAMYYCARYPNYGAFDIWGQGTMVTVSS VL: EIVLTQSPATLSLSPGERATLSCRASQSVWSYLAWYQQKPGQAPRLLIYDASNRATGIPARFSGSGSGTDFTLTISSLEPEDFAVYYCQQYFYNGWPFGQGTKLEIK: 0.0009

From here, focus on the item given below.
Which koff is reported for this binder? BDG11.003 (human IgG1) (antibody, V domains shown) VH: EVQLVQSGAEVKKPGESLKISCKGSGYSFTSYWIGWVRQMPGKGLEWMGIIYPSDSDTRYSPSFQGQVTISADKSISTAYLQWSSLKASDTAMYYCARYPNYGAFDIWGQGTMVTVSS VL: EIVLTQSPATLSLSPGERATLSCRASQSVFSYLAWYQQKPGQAPRLLIYDASNRATGIPARFSGSGSGTDFTLTISSLEPEDFAVYYCQQYFYWGWPFGQGTKLEIK
0.000641
